Ref: the supplement of paper PMC13207355

# System: E34 (patient-derived glioblastoma stem cells of proneural subtype);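 note: cell Painting imaging in 384-well plates, CellProfiler features reduced to at least 20 principal components, Euclidean distance versus same-plate DMSO vehicle wells (0.1% v/v), median over six images per well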
# assay: phenotypic distance (Euclidean, principal components) from DMSO controls (arbitrary units); higher = stronger morphological change
# condition: 4.1 nM; exposure time: 72 h
Counter-ions that a name gives are not always drawn.
Assign a class from recorded phenotypic distance; defined classes: bin 0 (below 0.7), bin 1 (0.7 to below 1), bin 2 (1 or more)

As a guide, the following entries are already answered.
{"compound": "CC1(C)S[C@@H]2[C@H](NC(=O)Cc3ccccc3)C(=O)N2[C@H]1C(=O)O [Benzylpenicillin sodium]", "tgt": "E34", "discrete label": "bin 1"}
{"compound": "CCCCC1C(=O)N(c2ccccc2)N(c2ccc(O)cc2)C1=O (centres undefined) [Oxyphenbutazone]", "tgt": "E34", "discrete label": "bin 0"}
{"compound": "Cc1ccc2c(c1)C1(CCN(CCc3nc(-c4ccccc4)oc3C)CC1)OC(=O)N2", "tgt": "E34", "discrete label": "bin 1"}
{"compound": "CCCSc1ccc2[nH]c(NC(=O)OC)nc2c1 [Albendazole]", "tgt": "E34", "discrete label": "bin 0"}
{"compound": "CCCCC(CC)CNC(=N)NC(=N)NCCCCCCNC(=N)NC(=N)NCC(CC)CCCC (centres undefined) [Alexidine dihydrochloride]", "tgt": "E34", "discrete label": "bin 2"}
{"compound": "Nc1ccc(-c2ccc3ncc4ccc(=O)n(-c5cccc(C(F)(F)F)c5)c4c3c2)cn1 [Torin2]", "tgt": "E34", "discrete label": "bin 2"}

# bin label for COc1cc([C@@H]2c3cc4c(cc3[C@H](O)[C@H]3COC(=O)[C@H]23)OCO4)cc(OC)c1OC [Podophyllotoxin]
bin 2

Which class is correct for the following compound? COc1c(N2CCNC(C)C2)c(F)cc2c(=O)c(C(=O)O)cn(C3CC3)c12 (centres undefined) [Gatifloxacin]
bin 0

Hi, small favor: classify COc1cc2c(cc1O)CC[C@@H]1[C@@H]2CC[C@]2(C)[C@@H](O)CC[C@@H]12 [2-methoxyestradiol] by its phenotypic distance when you get a moment.
bin 1

Returns: class label. Input: CC[C@@]1(O)C(=O)OCc2c1cc1n(c2=O)Cc2cc3cc(O)ccc3nc2-1 [Hydroxy Camptothecine]
bin 2

Where would COc1ccc2c(c1)CC[C@@H]1[C@@H]2CC[C@]2(C)[C@@H](NCCCCCCN3C(=O)CCC3=O)CC[C@@H]12 land among the classes by reported phenotypic distance?
bin 2

Into which category would you place C=CC(=O)Nc1cc(Nc2nccc(-c3cn(C)c4ccccc34)n2)c(OC)cc1N(C)CCN(C)C [Osimertinib mesylate] ?
bin 0

Bin? Cc1cc(C(C)(C)CC(C)(C)C)ccc1OCCOCC[N+](C)(C)Cc1ccccc1 [Methyl benzethonium chloride]
bin 0

Class for COc1cc(NS(C)(=O)=O)ccc1Nc1c2ccccc2nc2ccccc12 [Amsacrine] ?
bin 0

Input CC(C)(C)C1CCN(C(=O)n2ncc(C(O)(c3ccccc3)c3ccccc3)n2)CC1 [ML211] ; output its category
bin 2

Could you place Nc1ccn([C@H]2CC[C@@H](CO)O2)c(=O)n1 [Zalcitabine] in its proper category? Many thanks.
bin 1

State the band of CCCCCCCCCCCCCC(=O)O[C@@H]1[C@@H](C)[C@@]2(O)[C@@H](C=C(CO)C[C@]3(O)C(=O)C(C)=C[C@@H]23)[C@@H]2C(C)(C)[C@]12OC(C)=O [Phorbol 12-myristate 13-acetate]
bin 2

Returns: class label. Input: CC(C)C[C@H](NC(=O)[C@H](Cc1ccccc1)C[C@@H](O)[C@H](Cc1ccccc1)NC(=O)OC(C)(C)C)C(=O)N[C@@H](Cc1ccccc1)C(N)=O [L-685,458]
bin 2

Bin? CC[n+]1c(/C=C/C=C2/N(C)c3ccccc3C2(C)C)sc2ccccc21
bin 2

Which class does C[C@@H](O[C@H]1OCCN(Cc2n[nH]c(=O)[nH]2)[C@H]1c1ccc(F)cc1)c1cc(C(F)(F)F)cc(C(F)(F)F)c1 [Aprepitant] fall in?
bin 0

Which class holds COc1cc(OC)c(C(=O)CCCN2CCCC2)c(OC)c1 [Buflomedil hydrochloride] ?
bin 1

For the record O=C1CC[C@@H](C(=O)N2CSC[C@H]2C(=O)O)N1 [Pidotimod] , report the class its phenotypic distance corresponds to.
bin 0
